# assay-target: T1, ecdTDR S305A mutant (Arabidopsis thaliana, UniProt Q9FII5 30-642, S305A)
# T1 sequence: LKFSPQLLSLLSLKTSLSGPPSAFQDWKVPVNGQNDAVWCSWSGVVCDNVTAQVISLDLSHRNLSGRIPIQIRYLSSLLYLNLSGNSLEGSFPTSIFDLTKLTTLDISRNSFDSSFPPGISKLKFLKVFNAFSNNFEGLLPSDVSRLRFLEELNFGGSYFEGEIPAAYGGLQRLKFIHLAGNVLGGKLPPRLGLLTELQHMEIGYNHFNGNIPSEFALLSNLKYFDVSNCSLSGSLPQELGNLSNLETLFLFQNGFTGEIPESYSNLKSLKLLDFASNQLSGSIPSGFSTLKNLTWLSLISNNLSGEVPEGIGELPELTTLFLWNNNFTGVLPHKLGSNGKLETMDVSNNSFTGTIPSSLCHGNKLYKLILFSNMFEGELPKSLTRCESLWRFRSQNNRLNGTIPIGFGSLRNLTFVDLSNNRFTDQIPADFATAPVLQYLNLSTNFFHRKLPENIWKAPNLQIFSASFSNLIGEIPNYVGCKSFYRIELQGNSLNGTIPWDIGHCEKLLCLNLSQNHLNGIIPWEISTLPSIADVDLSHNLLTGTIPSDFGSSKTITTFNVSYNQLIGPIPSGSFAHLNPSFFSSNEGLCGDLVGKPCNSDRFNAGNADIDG
# procedure-details: ITC
Square brackets hold non-standard residues; d marks the D form. Ends that are not written are not given here. Hyp = O=C(O)[C@@H]1C[C@@H](O)CN1
quantity-measured: Kd (nM)

INSERT INTO assay_data (binder, observed_result) VALUES
  ('HEV[Hyp]SG[Hyp]NPISN (TDIF, the 12-residue CLE peptide processed from CLE41 and CLE44 of A. thaliana; printed as HEV(Hyp)SG(Hyp)NPISN; numbers count on: the 12-residue peptide; CLE44 encodes the same peptide; also called wild type TDIF; wtTDIF; source: synthetic peptide (peptide 2.0)) [Tracheary Element Differentiation Inhibitory Factor (TDIF) peptide]', 455);

Origin of values: paper PMC5383425
